- protocolText: Angle of rupture (Multi Tester MT-1001T)
- Format: physicochemical
- conditionSet: crystal powder, after three impacts
Residues, ends and D or L forms follow the SMILES beside them.
measurementLabel: Angle of rupture (°)

• CCO.C[C@H](N)C(=O)N[C@@H](CCC(N)=O)C(=O)O [Example 4 (25° C. vacuum drying), L-alanyl-L-glutamine n-ethanolate] (H-Ala-Gln-OH) = 35.1
• C[C@H](N)C(=O)N[C@@H](CCC(N)=O)C(=O)O.O.O [Example 7, L-alanyl-L-glutamine dihydrate] (H-Ala-Gln-OH) = 38.8
• C[C@H](N)C(=O)N[C@@H](CCC(N)=O)C(=O)O [Example 11, L-alanyl-L-glutamine nonhydrate] (H-Ala-Gln-OH) = 38.0
• C[C@H](N)C(=O)N[C@@H](CCC(N)=O)C(=O)O [Patent No. 4931801 (nonhydrate), L-alanyl-L-glutamine nonhydrate, reference compound] (H-Ala-Gln-OH) = 46.0
• C[C@H](N)C(=O)N[C@@H](CCC(N)=O)C(=O)O [Example 10, L-alanyl-L-glutamine nonhydrate] (H-Ala-Gln-OH) = 39.5
• C[C@H](N)C(=O)N[C@@H](CCC(N)=O)C(=O)O [Example 5, L-alanyl-L-glutamine nonhydrate] (H-Ala-Gln-OH) = 34.7

These entries and their values trace back to patent US11192851B2.
